# credit: PubChem BioAssay

Examples of compounds with documented z-score follow.
Assay Summary: basal CRE-LacZ reporter activity in PC12 – cell-based, unstimulated, primary screen (AID 1145)
Condition Info: no forskolin, luminescence, 4.5 h, higher = more signal, called active from +8 up or from −8 down

Compound	z-score
CC(C)C(=C=CC[C@H](O)c1ccccc1OCCO)C[C@H](O)COCc1ccccc1	16
COc1cc(C(O)C2C=CC3C(=O)N(c4ccccc4)C(=O)C3N2Nc2ccccc2F)cc(OC)c1OC (stereo unspecified)	1.61
COCCOC(=O)N1C(=O)[C@@]2(c3cc(C#CCCO)ccc31)[C@H](c1ccccc1OCCO)N1[C@H](c3ccccc3)[C@H](c3ccccc3)OC(=O)[C@H]1[C@@H]2C(N)=O	0.0653
O=C1O[C@@H](c2ccccc2)[C@@H](c2ccccc2)N2[C@@H](c3ccc(OCCO)cc3)[C@]3(C(=O)Nc4ccc(C#CC5(O)CCCCCC5)cc43)[C@@H](C(=O)Nc3nc4ccccc4s3)[C@H]12	0.685
COc1ccc(CCNC(=O)[C@@H]2c3ccccc3C(=O)N(Cc3ccccc3OC)[C@H]2c2ccc(CO)cc2)cc1	0.531
NC(=O)NCC#Cc1ccc2c(c1)[C@]1(C(=O)N2)[C@H](c2ccc(OCCO)cc2)N2[C@H](c3ccccc3)[C@H](c3ccccc3)OC(=O)[C@H]2[C@@H]1C(=O)O	0.155

###

Assay Summary: ATP-based viability of Huh7 replicon cells – cell-based, CellTiter-Glo luminescence, basal, 48 h, cytotoxicity control for HCV replication inhibitor project, primary screen (AID 1143);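 also: Huh7 hepatoma cells carrying a hepatitis C replication reporter with no stimulus; test concentration not given here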
Condition Info: higher = more signal, called active from +8 up or from −8 down
Observed Property: z-score

> print(dat)
                                   molecule  experimental.value
1  [N-]=[N+]=Nc1ccccc1[C@@H]1OC(c2ccc(OCCCO)cc2)=N[C@]1(Cc1ccccc1)C(=O)NCCN1CCOCC1               -5.28
2  O=C(NCc1ccc(F)cc1)[C@H]1C[C@H]2C(=O)N3CCC[C@H]3C(=O)N2[C@H]1c1ccc(O)cc1               -2.87
3  COC(=O)[C@@]1(Cc2ccc(F)cc2)[C@H]2c3cc(C(=O)N4CCCC4)n(CCc4ccccn4)c3C[C@H]2CN1C(=O)c1ccccc1              -0.619
4  COCCCNC(=O)[C@@]1(CCC(=O)OC(C)(C)C)COC(c2ccc(OCCCO)cc2)=N1                -1.7
5  [N-]=[N+]=NCc1ccccc1[C@@H]1OC(c2ccc(OCCCO)cc2)=N[C@]1(Cc1ccccc1N=[N+]=[N-])C(=O)O               -2.25
6  CC(C)C(=C=CC[C@H](O)c1ccccc1OCCO)C[C@H](O)c1cc(Cl)cc(Cl)c1O              -0.825
7  COc1ccc([Si](C)(C)[C@H]2[C@H](CCO)O[C@@]3(C(=O)N(Cc4cccc(N(C=O)c5ccccc5)c4)c4ccccc43)[C@@H]2C)cc1               -6.26
8  NC(=O)N1C(=O)C2C(C1=O)C1C=C(CCCO)C2C(C2CC2)N1Cc1sc2ccccc2c1Cl (stereo not drawn)              -0.205

###

Assay Summary: inhibition of PAO1 biofilm formation – strain PAO1, LB-PBS medium, absorbance 600 nm, primary screen (AID 1176); also: test concentration not given here
Condition Info: P. aeruginosa PAO1 growth/biofilm, A600, 12 h; higher = more signal

Compound	z-score
CCCCC(O)C1C=CC2C(=O)N(c3ccccc3)C(=O)C2N1Nc1ccc([N+](=O)[O-])cc1 (centres undefined)	1.03
C=CCNC(=O)[C@@H]1[C@H]2C(=O)O[C@H](c3ccccc3)[C@H](c3ccccc3)N2[C@H](c2ccc(OCCO)cc2)[C@@]12C(=O)Nc1ccc(C#CC3(O)CCCCCC3)cc12	2.09
CCCCCCc1nc(-c2ccc(-c3ccc(Cl)c(Cl)c3)o2)cc2c1[Si](C(C)C)(C(C)C)OC2	-0.558
O=C1O[C@H](Cc2ccccc2)[C@@H]2[C@H]3C=CCCC=C3CN2[C@H]1Cc1ccc(O)cc1	0.118
